- assay.protocol: reduction of polyQ htt aggregates in cells – imaging, exon1htt(103Q)mCFP cells, high-content imaging, primary screen (AID 483);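 note: compound exposure lasted 3 days before fixation; percent of the per-plate median nuclei count of sample wells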
- condition.description: exon1htt(103Q)mCFP cell line, aggregate imaging, at 2 µM; measured here: cell count, toxicity
measured.property: nuclei count (%)
Answer format: numeric, % implied, no suffix.

>>> df
                                   compound  recorded_measurement
0  COc1cccc(C2=NOC(C(=O)Nc3ccc(C(C)=O)cc3)C2)c1 (stereo not drawn)                   107
1  O=C(c1nc2n(n1)C(c1ccc(Cl)cc1)C=C(c1ccccc1)N2)N1CCOCC1 (stereo not drawn)                   126
2     O=C(Nc1cccc(C(=O)N2CCOCC2)c1)c1cccnc1                   106
3  CCOc1ccc(OCC)c(NC(=O)C2CCN(S(=O)(=O)c3cnc[nH]3)CC2)c1                   101
4  O=C(O)C1C2C=CC(O2)C1C(=O)NCc1ccc(Cl)cc1 (stereo not drawn)                  95.5
5  N[C@@H](Cc1cc(I)c(Oc2ccc(O)c(I)c2)c(I)c1)C(=O)O                   100

// returns reported nuclei count for input Cc1nc(NCc2ccccn2)c2ccccc2n1
69.7

Can you share its nuclei count? I mean this compound: CC(C(=O)N1CC2(C)CC1CC(C)(C)C2)N1C(=O)c2ccccc2C1=O (stereo not drawn)
99.8

Which nuclei count is reported for this compound? COc1ccc(OC)c(NC(=O)c2cn(C)c(=O)c3cc(OC)c(OC)cc23)c1
97.7

Query (compound): CCc1ccc2nc(NC(=O)CSCc3c(C)noc3C)sc2c1 ; field requested: nuclei count
105

I have this compound here, CCN1C(=O)NC(c2cc(Br)ccc2OC)C(C(=O)OC)=C1C (stereo not drawn) , and I need its recorded nuclei count.
92

Please look up its nuclei count: CCOC(=O)C1=C(C)NC(SC(C)=O)=NC1c1ccc(OC(C)=O)c(OC)c1 (stereo not drawn)
64.7

If you can, please state the reported nuclei count value of Cc1ccc(-c2ccc(/C=N/n3cnnc3)o2)cc1Cl .
85.3

What does the record list as nuclei count for O=C(Nc1ccc(F)cc1)c1cccc2c1C(=O)N(Cc1ccccn1)C2 ?
98.1

Which nuclei count is listed for CCOC(=O)C1CCN(Cc2ccc(C(=O)OC)cc2)CC1 ?
97

Value lookup for nuclei count; key = CC(=O)Nc1nc(-c2ccc(Cl)cc2)nc(C)c1C(C)=O
92.9

Requested field: nuclei count. Item: COC(=O)c1cc(Br)ccc1-c1ccc(/C=N/n2nnnc2N)o1
97.9

What measured nuclei count goes with COc1ccccc1NC(=O)CC(NCc1ccccc1)C(=O)O (stereo not drawn) ?
63.1

What measured nuclei count goes with Cc1ccc(C(C)C)c(OCc2nnc(SCC(=O)Nc3ncc(C)s3)n2C)c1 ?
108

Consider the compound Cc1cccc(Nc2ccccc2C(=O)O)c1C and give its measured nuclei count.
100

I'd like to know its nuclei count. The compound in question is COc1ccc(N2CCN(c3oc(COc4ccccc4)nc3C#N)CC2)cc1
102

Request the reported nuclei count associated with O=C(COc1ccccc1Cl)N1CCCC1
83.7

Value lookup for nuclei count; key = CC1(C)CC(=O)c2cnc(NC(=O)CSc3nc4ccccc4o3)nc2C1
87.1
